Source: patent US20210292393A1

target_system: SARS-CoV spike protein (SARS-CoV, UniProt P59594 14-1190)
Quick reference for median fluorescence intensity, fold over isotype control among some binders
Please make sure the unit comes right after the number.

# binder, reported_result
data = [
    ("antibody 337 (antibody, V domains shown) VH: QVQLVESGGGVVQPGRSLRLSCAASGFTFSSYGMHWVRQAPGKGLEWVAIIWYDGSNKYYADSVKGRFTISRDNSKNTLYLQMNSLRAEDTAVYYCAKDTGGYCSGGSCYPESYFDYWGQGTLVTVSS VL: SYVLTQPPSVSVAPGKTARITCGGNNIGSKSVHWYQQKPGQAPVLVIYYDSDRPSGIPERFSGSNSGNTATLTINRVEAGDEADYYCQVWDGSSDHLYVFGTGTKVTVL", "439 fold over isotype"),
]

Please find the next binder below.
median fluorescence intensity, fold over isotype control reading for antibody 372 (antibody, V domains shown) VH: QVQLVESGGGVVQPGRSLRLSCAASGFTFSSYAMHWVRQAPGKGLEWVAVISYDGSNKYYADSVKGRFTISRDNSKNTLYLQMNSLRAEDTAVYYCARDLGTSALLWFGELFLNYGMDVWGQGTTVTVSS VL: QSALTQPRSVSGSPGQSVTISCTGTSSDVGGYNYVSWYQQHPGKAPKLMIYDVSKRPSGVPDRFSGSKSGNTASLTISGLQAEDEADYYCCSYAGSPILVFGGGTKLTVL : 1.08 fold over isotype
